Hello, the source for this data is ChEMBL document CHEMBL3872238, in case you need it.

PROCEDURE DETAILS: Half life in human liver microsomes
Format: ADME
# half-life annotations

Would you please look over these solved cases?
CN1Cc2ccncc2N(S(C)(=O)=O)C/C=C/c2cc(ccc2N2CCOCC2)Nc2ncc(C(F)(F)F)c1n2: 4.38 h
CS(=O)(=O)N1CCCCC(=O)N2CCc3cc(ccc32)Nc2ncc(C(F)(F)F)c(n2)NCc2cccnc21: < 1 h
CN1Cc2ccccc2N(S(C)(=O)=O)CCCCC(=O)N2CCc3cc(ccc32)Nc2ncc(C(F)(F)F)c1n2: < 1 h

I would be grateful if you could share the reported half-life for "CCS(=O)(=O)N1CCCCC(=O)N2CCc3cc(ccc32)Nc2ncc(C(F)(F)F)c(n2)NCc2ccccc21" .
< 1 h

I would be grateful if you could share the reported half-life for "CS(=O)(=O)N1CCCCC(=O)N2CCc3cc(ccc32)Nc2ncc(C(F)(F)F)c(n2)NCc2ccccc21" .
< 1 h
